Sourced from ChEMBL document CHEMBL4038284

System: SR
Assay: Growth inhibition of human SR cells incubated for 48 hrs by sulforhodamine B assay
Assay type: functional
Details: read-out: LC50 (the source's name)
This listing pairs compounds with measured CC50.

Below: 3 compounds and their reported CC50.
[[record]]
compound = "COc1ccc(C2=NN(C=O)C(c3cccc(Nc4ccnc5cc(Cl)ccc45)c3)C2)cc1 (stereo not given)"
assayed_target = "SR"
result = "> 100 µM"

[[record]]
compound = "O=CN1N=C(c2ccc(Cl)cc2)CC1c1cccc(Nc2ccnc3cc(Cl)ccc23)c1 (stereo not given)"
assayed_target = "SR"
result = "> 100 µM"

[[record]]
compound = "COc1cccc2c1C(=O)c1c(O)c3c(c(O)c1C2=O)C[C@@](O)(C(=O)CO)C[C@@H]3O[C@H]1C[C@H](N)[C@H](O)[C@H](C)O1"
assayed_target = "SR"
result = "100 µM"


Prompt: Give the reported value of CC50 for this record: COc1cc(C(=O)/C=C/c2cccc(Nc3ccnc4cc(Cl)ccc34)c2)cc(OC)c1OC
Completion: > 100 µM

Prompt: Give the reported value of CC50 for this record: COc1ccc(C(=O)/C=C/c2cccc(Nc3ccnc4cc(Cl)ccc34)c2)cc1
Completion: > 100 µM
